Source: patent US6818749

# target system: anti-CC49 variable region (anti-idiotypic) antibodies in the serum of patient three
# assay overview: HPLC size exclusion; 5 µg cold competitor + ^125I-HuCC49 + patient serum; less complex = more competition
readout: percent of complexes (%)
Give bare numbers, in %.

Prompt: Which value of percent of complexes has been reported for HuCC49 CDR variant L-1 (antibody, V domains shown) VH: QVQLVQSGAEVVKPGASVKISCKASGYTFTDHAIHWVKQNPGQRLEWIGYFSPGNDDFKYNERFKGKATLTADTSASTAYVELSSLRSEDTAVYFCTRSLNMAYWGQGTLVTVSS VL: DIVMSQSPDSLAVSLGERVTLNCKSSQSVLYSSNSKNYLAWYQQKPGQSPKLLIYWASARESGVPDRFSGSGSGTDFTLTISSVQAEDVAVYYCQQYYSYPLTFGAGTKLELK in the records?
Completion: 9.8
